experiment-notes: NCI Yeast Anticancer Drug Screen. Data for the cln2 rad14 strain (AID 165)
test-conditions: S. cerevisiae cln2 rad14 strain, at 50.0 µM, hits give high values
Method: Growth inhibition of yeast strains with defined genetic alterations is measured as a screen for potential anti-cancer activity. Selected strains with alterations in DNA damage repair or cell cycle control were exposed to compounds and growth inhibition was measured relative to vehicle treated controls. The strain used in this assay is cln2 rad14
The panel holds about 79,000 compounds, 15% with a hit somewhere; the sample as a whole holds those more often.
Label Yes when growth inhibition is at or above 60%; anything below gets No.

Query: Say whether "COc1cc2ccc(/C=C\[N+](=O)[O-])cc2cc1OC" shows growth inhibition of 60% or more.
Result: Yes

Query: Say whether OC1(c2ccccc2)CSC2=Nc3ccccc3C3CCN1N23 (stereo not given) shows growth inhibition of 60% or more.
Result: No

Query: Say whether "S=C(N/N=C/c1ccccn1)Nc1ccc(Cl)cc1" shows growth inhibition of 60% or more.
Result: Yes

Query: Say whether "Cc1nc(-[n+]2nc(-c3ccncc3)nn2-c2ccccc2)sc1C" shows growth inhibition of 60% or more.
Result: Yes

Query: Say whether "C[C@H](CCC(=O)NN)[C@H]1CC[C@H]2[C@@H]3CC[C@@H]4C[C@H](O)CC[C@]4(C)[C@H]3CC[C@]12C" shows growth inhibition of 60% or more.
Result: No
